- measurement_protocol: Individual predicted steady‐state exposures
- Assay type: in vivo, human
- study_conditions: human, plasma, AUCss,0–24 geometric mean (CV), Concomitant use of OAT1/OAT3 inhibitor(s): Yes
attribute_measured: AUC (µg·h/mL)
Answer in µg·h/mL, number only, no unit symbol.

1. CC(C)(O/N=C(\C(=O)N[C@@H]1C(=O)N2C(C(=O)[O-])=C(C[n+]3ccccc3)CS[C@H]12)c1csc(N)n1)C(=O)O    934

Query compound follows.
Incoming: Recorded AUC for NC(=O)[C@@H]1CC[C@@H]2CN1C(=O)N2OS(=O)(=O)O , please?
Outgoing: 150

* * *

- measurement_protocol: Individual predicted steady‐state exposures
- Assay type: in vivo, human
- study_conditions: human, plasma, AUCss,0–24 geometric mean (CV), Obesity: Normal
Reported AUC values are given for each entry in this list.
Response body: numeric value in µg·h/mL, unit text excluded.

1) CC(C)(O/N=C(\C(=O)N[C@@H]1C(=O)N2C(C(=O)[O-])=C(C[n+]3ccccc3)CS[C@H]12)c1csc(N)n1)C(=O)O    878

Proceed to the following item.
Incoming: Item under review: NC(=O)[C@@H]1CC[C@@H]2CN1C(=O)N2OS(=O)(=O)O . Reported AUC?
Outgoing: 144

The measurements presented in this section are drawn from paper PMC6440567.
